Target: full-length hPin1 (human, UniProt Q13526 1-163)
Sequence (Q13526 whole entry): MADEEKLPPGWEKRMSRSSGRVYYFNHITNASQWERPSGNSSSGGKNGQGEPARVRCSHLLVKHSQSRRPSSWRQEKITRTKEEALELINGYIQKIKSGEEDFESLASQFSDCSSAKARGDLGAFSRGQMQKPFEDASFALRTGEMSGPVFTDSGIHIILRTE
Assay: method not stated there (ITC value of paragraph 223 rounded); D isomer
Parameter: Kd (nM)

| Substance | Assay System | Parameter | Reading |
| --- | --- | --- | --- |
| peptide 17, Ac-Phe-D-Thr(PO3H2)-Pip-Nal-Gln-NH2 | full-length hPin1 (human, UniProt Q13526 1-163) | Kd | 19 |
